Molecular target: T1, TRβ ligand binding domain (UniProt P10828 202-461, limits assumed)
T1 construct: also called Thyroid Receptor LBD; TRβ LBD
T1 sequence (looked up): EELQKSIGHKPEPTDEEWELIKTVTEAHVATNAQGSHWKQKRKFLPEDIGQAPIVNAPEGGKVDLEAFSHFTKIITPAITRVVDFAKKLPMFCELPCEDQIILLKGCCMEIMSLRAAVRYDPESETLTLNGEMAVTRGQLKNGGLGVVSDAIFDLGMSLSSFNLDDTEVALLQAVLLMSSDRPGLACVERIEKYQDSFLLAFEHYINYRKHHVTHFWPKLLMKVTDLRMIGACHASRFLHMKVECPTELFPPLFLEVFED
Test: fluorescence polarization, 10 nM fluorescein peptide, LBD titrated, no ligand
Primed or numbered codes have the meaning given here. No end group written: not given here. fluorescein = fluorescein: fluorescein label attached at the N-terminus of the peptide; fluorescein″ = fluorescein label attached to the peptide N-terminus

| binder | Kd [nM] |
| --- | --- |
| fluorescein-GHSFADPASNLGLEDIIRKALMGSF (also called NCOR peptide; NCoR 2251-2275) [Fluoroscein-NCOR ID-C peptide (NCoR amino acids 2251-2275)] | 1300 |
| {fluorescein″}-TNMGLEAIIFKALMGKYDQWEE [Fluoroscein-SMRT ID-C peptide] | 740 |
